biological target: h-GABA-A α5β3γ2 (Homo sapiens, UniProt P18507+P31644); construct: expressed in transfected cells; host or cells: Xenopus laevis oocytes, micro-injected with subunit RNA; assay: [3H]flumazenil competition binding assay on membranes of HEK293 cells expressing GABAA receptors; conditions: Table 1; displacement of [3H]-Flumazenil (0.5 nM), HEK293 cells expressing human receptors, means of two determinations
Output MET for records whose Ki is lower than 20 nM, NOT MET for records at or above 20 nM.

- CCOc1ncc(-c2cnn(Cc3c(-c4ccc(Cl)cc4F)nnn3C)c(=O)c2)cc1C [Example 66]: MET
- CCOC1CN(c2cnn(Cc3c(-c4ccc(Cl)cc4F)nnn3CC)c(=O)c2)C1 [Example 91]: MET
- CCn1nnc(-c2ccc(Cl)cc2F)c1Cn1ncc(N2CC(OC3CCC3)C2)cc1=O [Example 85]: MET
- Cc1nnn(-c2ccc(Cl)cc2F)c1Cn1ncc(N2C[C@@H](C)O[C@@H](C)C2)cc1=O [Example 7]: MET
- Cn1nnc(-c2ccc(Cl)cc2F)c1Cn1ncc(N2CC(Oc3ccnc(C(F)(F)F)n3)C2)cc1=O [Example 100]: MET

Ask: Hi there! Is Ki for COc1cc(-c2cnn(Cc3c(-c4ccc(Cl)cc4F)nnn3C)c(=O)c2)ccn1 [Example 63] below 20 nM, do you know?
Result: MET

Ask: Similarly, Cn1nnc(-c2ccc(Cl)cc2F)c1Cn1ncc(N2CC3(CC[C@H](F)CO3)C2)cc1=O [Example 126] ?
Result: MET

Ask: How about COc1ncc(-c2cnn(Cc3c(-c4ccc(C(F)(F)F)nn4)nnn3C)c(=O)c2)cc1Cl [Example 123] ?
Result: MET

Ask: Also, CNc1cnn(Cc2c(-c3ccc(Cl)cc3F)nnn2C)c(=O)c1 [Example 22] please.
Result: NOT MET

Ask: Request: COc1ccc(-c2cnn(Cc3c(C)nnn3-c3ccc(Cl)cc3F)c(=O)c2)cc1 [Example 56]
Result: NOT MET

Ask: Follow-up item: COc1ncc(-c2cnn(Cc3c(-c4ccc(C)nn4)nnn3C)c(=O)c2)cc1Cl [Example 114]
Result: MET

Ask: What about Cc1nnn(-c2ccc(Cl)cc2)c1Cn1ncc(N2CCNCC2)cc1=O [Example 14] ?
Result: NOT MET
